Experiment: Pharmacokinetics of a single oral dose in healthy postmenopausal women
Assay type: in vivo, human
Settings: female, human, plasma, po, single oral dose, postmenopausal women; read-out: terminal half life (converted)
testReadout: half-life

Query: I have this compound here, "C[C@]12CC[C@@H]3c4ccc(O)cc4CC[C@H]3[C@@H]1[C@@H](O)[C@@H](O)[C@@H]2O" , and I need its recorded half-life.
Response: 28 h

Data origin: patent US9579329B2
